# credit: patent US9713615B2

Would you kindly list IC50 for each of these molecules?
system: OVCAR-3 (ovary); assay: SRB growth inhibition assay, OVCAR-3; type: cell-based; settings: Homo sapiens, 96 hours incubation, read-out: Inhibition of cell growth (IC50, μM) Ovcar3
The reply should contain only the number, in µM.

For COc1ccc(-c2nc(C(=O)N3CCc4c(ccc(OC)c4O)C3)c3ccccc3n2)cc1 [Compound 22] , what is its reported IC50? 0.08

For COc1ccc2c(c1O)CCN(C(=O)c1nc(-c3cccc(F)c3)nc3ccccc13)C2 [Compound 42] then? 0.15

For COc1ccc2c(c1O)CCN(C(=O)c1nc(-c3ccccc3)nc3ccccc13)C2 [Compound 17] then? 0.074

For COc1ccc2c(c1O)CCN(C(=O)c1nc(-c3ccc(F)cc3)nc3ccc(F)cc13)C2 [Compound 97] then? 0.073

For COc1ccc2c(c1)CCN(C(=O)c1nc(-c3ccc(F)cc3)nc3ccccc13)C2 [Compound 7] then? 0.16

For COc1ccc2c(c1O)CCN(C(=O)c1nc(-c3cccnc3)nc3ccccc13)C2 [Compound 84] then? 0.14

For COc1ccc2c(c1O)CCN(C(=O)c1nc(-c3ccc(F)cc3)nc3ccccc13)C2 [Compound 1] then? 0.06

For COc1ccc2c(c1O)CCN(C(=O)c1nc(-c3ccncn3)nc3ccccc13)C2 [Compound 70] then? 0.068

For COc1ccc2c(c1O)CCN(C(=O)c1nc(-c3ccc(F)cc3F)nc3ccccc13)C2 [Compound 57] then? 0.23

---

Would you kindly list IC50 for each of these compounds?
test system: PC3 (prostate); experiment: SRB growth inhibition assay, PC3; format: cell-based; details: Homo sapiens, 96 hours incubation, read-out: Inhibition of cell growth (IC50, μM) PC-3
The reply should contain only the number, in µM.

For `COc1ccc2c(c1O)CCN(C(=O)c1nc(-c3cccc(F)c3)nc3ccccc13)C2` , what is its reported IC50? 0.15

For `COc1ccc2c(c1O)CCN(C(=O)c1nc(-c3ccncn3)nc3ccccc13)C2` then? 0.049

For `COc1ccc2c(c1O)CCN(C(=O)c1nc(-c3ccc(F)cc3F)nc3ccccc13)C2` then? 0.21

For `COc1ccc2c(c1O)CCN(C(=O)c1nc(-c3ccc(F)cc3)nc3ccccc13)C2` then? 0.076

For `COc1ccc2c(c1O)CCN(C(=O)c1nc(-c3cccnc3)nc3ccccc13)C2` then? 0.15

For `COc1ccc(-c2nc(C(=O)N3CCc4c(ccc(OC)c4O)C3)c3ccccc3n2)cc1` then? 0.076

For `COc1ccc2c(c1O)CCN(C(=O)c1nc(-c3ccccc3)nc3ccccc13)C2` then? 0.076

---

tested on: A549 (lung); assay: SRB growth inhibition assay, A549; format: cell-based; settings: Homo sapiens, 96 hours incubation, read-out: Inhibition of cell growth (IC50, μM) A549
Test readout: IC50 (µM)
The reply should contain only the number, in µM.

For COc1ccc2c(c1O)CCN(C(=O)c1nc(-c3cccc(F)c3)nc3ccccc13)C2 [Compound 42] , what is its reported IC50? 0.21

For COc1ccc(-c2nc(C(=O)N3CCc4c(ccc(OC)c4O)C3)c3ccccc3n2)cc1 [Compound 22] then? 0.15

For COc1ccc2c(c1O)CCN(C(=O)c1nc(-c3ccc(F)cc3)nc3ccccc13)C2 [Compound 1] then? 0.14

For COc1ccc2c(c1O)CCN(C(=O)c1nc(-c3ccncn3)nc3ccccc13)C2 [Compound 70] then? 0.11

For COc1ccc2c(c1O)CCN(C(=O)c1nc(-c3ccccc3)nc3ccccc13)C2 [Compound 17] then? 0.15

For COc1ccc2c(c1O)CCN(C(=O)c1nc(-c3cccnc3)nc3ccccc13)C2 [Compound 84] then? 0.24
